// pEC50 lookup, one value per entry
- Target Of Assay: S1 subunit of the SARS-CoV-2 spike protein, WA01/2020 strain (SARS-CoV-2, WA01/2020 strain, UniProt P0DTC2 16-685)
- Experiment Summary: dose-response ELISA on coated antigen
pEC50: −log10 of the molar value.
Readout Name: pEC50

INSERT INTO measurements (binder, readout_name, measured_value) VALUES
  ('antibody 2598 (antibody, V domains shown) VH: QVQLQESGPGLVKPSGTLSLTCVVSGGSISSSNWWSWVRQPPGKGLEWIGETFHSGSFNYNPSLKSRVTISVDKSKNQFSLKLSSVTAADTAIYYCATTRVGYEGHFYYYGMDVWGQGTTVTVSS VL: DIQMTQSPSSVSASVGDRVTITCRASQGISSWLAWYQQKPGKAPKLLIYAASSLQSGVPSRFSGSGSGTDFTLTISSLQPEDFATYYCQQANRFPWTFGQGTKVEIK', 'pEC50', 10.08),
  ('antibody 1238 (antibody, V domains shown) VH: QVQLVQSGSELKKPGASVKVSCKASGYTFTNYGMNWVRQAPGQGLEWMGWINTNTGNPTNAQGFTGRFVFSLDTSVSTAYLQINSLKGEDTAVYYCARVADTGEMDVWGQGTTVTVSS VL: SYELTQPPSVSVSPGQTARITCSGDALPKQYAYWYQQKPGQAPVLVIYKDSERPSGIPERFSGSSSGTTVTLTISGVQAEDEADYYCQSADSSGSYNWVFGGGTKLTIL', 'pEC50', 10.55),
  ('antibody 2788 (antibody, V domains shown) VH: QVQLVQSGAEVKKPGASVKVSCKVSGYTLIELSMHWVRQAPGKGLEWMGGFDPEGAETIYAQKFQGRVTMTEDTSTDTAYMELSSLRSDDTAVYYCATGPAVFAANWFDPWGQGTLVTVSS VL: QSALTQPPSASGSPGQSVTISCTGTSSDIGNYNNVSWYQQHPGKAPKLMIYDVIKRPSGVPDRFSGSKSGNTASLTVSGLQAEDEADYYCSSYAGKSYVFGTGTKVTVL', 'pEC50', 10.24),
  ('antibody 2793 (antibody, V domains shown) VH: QVQLVQSGAEVKKPGASVKVSCKVSGFTLPELSIHWVRQAPGKGLEWMGGFDPEDAKTIYAQKFQGRVTMTEDTSTDIAYMELNSLRSDDTAVYYCATGSPFGVVGNWLDPWGQGTLVTVSS VL: QSALTQPASVSGSPGQSITISCTGTSSDVGDFSYVSWYQQHPGKAPKLMIYEVTKRPSGVSNRFSGSKSGNTASLTISGLQTEDEADYYCTSYTSSRLVLFGGGTKLTVL', 'pEC50', 9.95);
